Target: Proto-oncogene tyrosine-protein kinase Src (Homo sapiens, UniProt P12931)
Sequence (P12931 2-536 limits assumed): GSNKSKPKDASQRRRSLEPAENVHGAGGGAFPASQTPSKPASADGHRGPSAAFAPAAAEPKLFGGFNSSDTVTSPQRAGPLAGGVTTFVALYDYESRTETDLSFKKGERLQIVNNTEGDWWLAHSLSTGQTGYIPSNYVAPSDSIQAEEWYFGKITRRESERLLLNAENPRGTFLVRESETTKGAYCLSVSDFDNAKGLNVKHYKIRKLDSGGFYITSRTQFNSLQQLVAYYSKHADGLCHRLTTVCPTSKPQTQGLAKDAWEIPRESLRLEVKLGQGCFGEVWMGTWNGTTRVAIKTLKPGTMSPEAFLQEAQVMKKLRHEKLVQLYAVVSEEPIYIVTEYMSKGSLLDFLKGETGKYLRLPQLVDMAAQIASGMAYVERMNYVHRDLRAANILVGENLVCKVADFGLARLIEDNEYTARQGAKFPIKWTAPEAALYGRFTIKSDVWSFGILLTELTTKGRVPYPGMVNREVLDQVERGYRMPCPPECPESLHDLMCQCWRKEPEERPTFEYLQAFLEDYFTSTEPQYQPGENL
Experiment: Inhibition of human recombinant SRC
pIC50: −log10 of the molar value.
# maps each entry to its pIC50
readout.kind: pIC50

> print(dat)
                            compound.string  readout.kind  measured.value
1  COc1cc(C2=C(c3c[nH]c4ccccc34)CNC2=O)cc(OC)c1OC         pIC50            4.85
2  COc1cc(C2=C(c3cn(COC(C)(C)C)c4ccccc34)CNC2=O)cc(OC)c1OC         pIC50            5.36
3  COc1cc(C2=C(c3c[nH]c4ccccc34)C(=O)NC2)cc(OC)c1OC         pIC50            4.39
4  COc1cc(C2=C(c3cn(COC(C)C)c4ccccc34)CNC2=O)cc(OC)c1OC         pIC50            4.54
5  COc1cc(C2=C(c3cn(COCC[Si](C)(C)C)c4ccccc34)CNC2=O)cc(OC)c1OC         pIC50            5.35

---

Biological target: Vascular endothelial growth factor receptor 2 (Homo sapiens)
Sequence (P35968 whole entry): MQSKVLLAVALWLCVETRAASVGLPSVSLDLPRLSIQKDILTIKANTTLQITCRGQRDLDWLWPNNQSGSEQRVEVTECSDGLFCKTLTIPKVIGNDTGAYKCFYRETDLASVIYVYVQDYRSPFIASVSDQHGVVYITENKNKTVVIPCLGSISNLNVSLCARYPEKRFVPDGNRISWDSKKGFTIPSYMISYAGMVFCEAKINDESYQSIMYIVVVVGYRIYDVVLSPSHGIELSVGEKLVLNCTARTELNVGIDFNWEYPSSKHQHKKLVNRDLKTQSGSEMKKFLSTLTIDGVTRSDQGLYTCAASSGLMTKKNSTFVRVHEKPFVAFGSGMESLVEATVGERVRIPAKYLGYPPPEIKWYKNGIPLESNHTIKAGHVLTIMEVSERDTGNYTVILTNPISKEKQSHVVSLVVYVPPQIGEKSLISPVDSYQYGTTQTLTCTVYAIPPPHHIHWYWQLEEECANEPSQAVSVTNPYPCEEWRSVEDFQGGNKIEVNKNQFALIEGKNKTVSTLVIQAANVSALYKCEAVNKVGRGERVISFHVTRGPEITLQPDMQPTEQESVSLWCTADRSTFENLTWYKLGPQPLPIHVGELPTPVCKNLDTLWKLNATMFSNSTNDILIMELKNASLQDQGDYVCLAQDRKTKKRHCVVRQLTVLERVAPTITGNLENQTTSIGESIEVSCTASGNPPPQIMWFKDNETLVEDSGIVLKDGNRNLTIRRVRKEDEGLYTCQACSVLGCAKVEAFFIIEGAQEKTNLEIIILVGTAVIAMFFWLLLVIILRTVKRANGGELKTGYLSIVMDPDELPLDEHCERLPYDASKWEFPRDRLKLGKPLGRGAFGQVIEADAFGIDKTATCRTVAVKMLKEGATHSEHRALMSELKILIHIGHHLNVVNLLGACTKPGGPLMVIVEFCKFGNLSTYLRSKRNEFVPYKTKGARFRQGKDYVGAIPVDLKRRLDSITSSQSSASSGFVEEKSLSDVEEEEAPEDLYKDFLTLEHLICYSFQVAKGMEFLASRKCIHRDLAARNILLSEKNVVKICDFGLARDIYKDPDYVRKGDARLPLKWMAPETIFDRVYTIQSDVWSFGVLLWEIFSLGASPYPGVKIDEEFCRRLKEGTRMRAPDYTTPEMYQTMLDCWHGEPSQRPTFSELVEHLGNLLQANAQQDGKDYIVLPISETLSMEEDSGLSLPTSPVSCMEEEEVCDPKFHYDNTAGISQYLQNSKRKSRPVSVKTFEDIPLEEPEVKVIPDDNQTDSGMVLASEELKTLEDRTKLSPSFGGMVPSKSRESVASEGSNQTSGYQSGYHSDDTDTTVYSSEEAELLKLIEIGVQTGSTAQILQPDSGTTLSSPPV
Test: Inhibition of human recombinant VEGFR2
readout.kind: IC50 (µM)

> print(dat)
                                    compound  measured.value
 1  CCOCn1cc(C2=C(c3cc(OC)c(OC)c(OC)c3)C(=O)NC2)c2ccccc21             5.3
 2  COc1cc(C2=C(c3cn(COCc4ccccc4)c4ccccc34)CNC2=O)cc(OC)c1OC             1.6
 3  COc1cc(C2=C(c3cn(COC(C)C)c4ccccc34)CNC2=O)cc(OC)c1OC             5.2
 4  COc1cc(C2=C(c3c[nH]c4ccccc34)C(=O)NC2)cc(OC)c1OC              11
 5  COc1ccc(C2=C(c3c[nH]c4ccccc34)C(=O)NC2)cc1              13
 6  COc1cc(C2=C(c3cn(C)c4ccccc34)C(=O)NC2)cc(OC)c1OC              15
 7  COc1cc(C2=C(c3c[nH]c4ccccc34)CNC2=O)cc(OC)c1OC           0.031
 8  COc1cc(C2=C(c3cn(COC(C)(C)C)c4ccccc34)CNC2=O)cc(OC)c1OC             4.4
 9  COCn1cc(C2=C(c3cc(OC)c(OC)c(OC)c3)C(=O)NC2)c2ccccc21             2.3
10  COc1ccc(C2=C(c3cn(C)c4ccccc34)C(=O)NC2)cc1              31
11  COc1cc(C2=C(c3cn(COCC[Si](C)(C)C)c4ccccc34)CNC2=O)cc(OC)c1OC             3.1
12  COc1cc(C2=C(c3cn(COc4ccccc4)c4ccccc34)CNC2=O)cc(OC)c1OC             1.5
13  COc1cc(C2=C(c3cn(CC4COC(C)(C)O4)c4ccccc34)CNC2=O)cc(OC)c1OC (stereo not given)               8
14  COc1cc(C2=C(c3cn(CC(O)CO)c4ccccc34)CNC2=O)cc(OC)c1OC (stereo not given)             4.2
15  COc1cc(C2=C(c3c[nH]c4ccccc34)C(O)NC2=O)cc(OC)c1OC (stereo not given)             5.9
